Reference source for all entries: patent US20220402985A1

Overview of reported Cardiomyocyte (CM) (ErbB4) Avg EC50 across a group of binders:
- assayed-target: ErbB4 on neonatal rat cardiomyocytes (rat) (UniProt Q62956)
- Sequence (Q62956 26-1308): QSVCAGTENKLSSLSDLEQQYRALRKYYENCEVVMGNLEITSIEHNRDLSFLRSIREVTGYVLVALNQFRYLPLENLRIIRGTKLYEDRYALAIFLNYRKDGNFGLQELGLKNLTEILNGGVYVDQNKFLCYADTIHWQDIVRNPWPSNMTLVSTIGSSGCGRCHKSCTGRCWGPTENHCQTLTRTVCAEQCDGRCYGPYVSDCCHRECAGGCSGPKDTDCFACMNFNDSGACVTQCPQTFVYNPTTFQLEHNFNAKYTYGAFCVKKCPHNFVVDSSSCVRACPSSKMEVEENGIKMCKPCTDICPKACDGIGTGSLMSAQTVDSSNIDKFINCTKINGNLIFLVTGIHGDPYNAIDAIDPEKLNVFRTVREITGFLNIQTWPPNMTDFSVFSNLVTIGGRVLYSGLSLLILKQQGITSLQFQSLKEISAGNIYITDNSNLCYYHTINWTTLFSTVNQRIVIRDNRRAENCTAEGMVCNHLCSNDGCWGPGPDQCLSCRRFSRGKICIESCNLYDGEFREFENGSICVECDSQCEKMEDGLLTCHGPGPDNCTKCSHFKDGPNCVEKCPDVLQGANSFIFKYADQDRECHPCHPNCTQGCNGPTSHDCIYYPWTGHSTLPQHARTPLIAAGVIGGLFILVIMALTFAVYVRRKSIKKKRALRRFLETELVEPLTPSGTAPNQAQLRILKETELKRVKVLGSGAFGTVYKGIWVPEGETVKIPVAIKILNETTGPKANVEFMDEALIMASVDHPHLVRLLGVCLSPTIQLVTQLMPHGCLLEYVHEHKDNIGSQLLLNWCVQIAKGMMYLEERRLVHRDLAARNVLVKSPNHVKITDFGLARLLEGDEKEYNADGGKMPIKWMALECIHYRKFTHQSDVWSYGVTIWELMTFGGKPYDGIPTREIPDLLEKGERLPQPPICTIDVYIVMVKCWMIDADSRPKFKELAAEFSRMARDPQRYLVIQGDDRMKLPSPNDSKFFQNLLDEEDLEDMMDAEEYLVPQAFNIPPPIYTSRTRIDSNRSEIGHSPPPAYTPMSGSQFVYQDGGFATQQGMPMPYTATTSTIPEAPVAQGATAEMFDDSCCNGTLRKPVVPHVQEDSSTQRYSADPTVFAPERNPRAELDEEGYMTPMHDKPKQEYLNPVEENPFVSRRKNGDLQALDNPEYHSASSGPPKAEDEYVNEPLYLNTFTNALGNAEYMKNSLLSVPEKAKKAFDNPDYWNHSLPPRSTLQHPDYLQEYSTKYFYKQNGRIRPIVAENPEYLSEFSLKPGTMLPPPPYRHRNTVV
- assay-explanation: cell-based or functional assay
Give your result in nM as a bare value.

huNRG1(S177-Q237)(3D8)::GG::huFcSEFL2 (Pb) (Fc fusion) SHLVKCGEKDKTFCVNGGECFMVEDLSIPSRFLCKCPNEFTGDRCQDFFMASFYKAEELYQGGDKTHTCPPCPAPELLGGPSVFLFPPKPKDTLMISRTPEVTCVVVDVSHEDPEVKFNWYVDGVEVHNAKTKPCEEQYGSTYRCVSVLTVLHQDWLNGKEYKCKVSNKALPAPIEKTISKAKGQPREPQVYTLPPSREEMTKNQVSLTCLVKGFYPSDIAVEWESNGQPENNYKTTPPVLDSDGSFFLYSKLTVDKSRWQQGNVFSCSVMHEALHNHYTQKSLSLSPGK : 0.51
huNRG1(S177-Q237)(NRGE1J)::GG::huFcSEFL2 (Pb) (Fc fusion) SHLVKCGENDKSFCVNGGECYMVEGSSIPSRYLCKCPNEFTGDRCQDDFMASFYKAEELYQGGDKTHTCPPCPAPELLGGPSVFLFPPKPKDTLMISRTPEVTCVVVDVSHEDPEVKFNWYVDGVEVHNAKTKPCEEQYGSTYRCVSVLTVLHQDWLNGKEYKCKVSNKALPAPIEKTISKAKGQPREPQVYTLPPSREEMTKNQVSLTCLVKGFYPSDIAVEWESNGQPENNYKTTPPVLDSDGSFFLYSKLTVDKSRWQQGNVFSCSVMHEALHNHYTQKSLSLSPGK : 14.1
huNRG1(S177-Q237)(_200E)::GG::huFcSEFL2 (Pb) (Fc fusion) SHLVKCAEKEKTFCVNGGECFMVEDLSNPSRYLCKCPNEFTGDRCQNYVMASFYKAEELYQGGDKTHTCPPCPAPELLGGPSVFLFPPKPKDTLMISRTPEVTCVVVDVSHEDPEVKFNWYVDGVEVHNAKTKPCEEQYGSTYRCVSVLTVLHQDWLNGKEYKCKVSNKALPAPIEKTISKAKGQPREPQVYTLPPSREEMTKNQVSLTCLVKGFYPSDIAVEWESNGQPENNYKTTPPVLDSDGSFFLYSKLTVDKSRWQQGNVFSCSVMHEALHNHYTQKSLSLSPGK : 0.452

From here, focus on the item given below.
Measured Cardiomyocyte (CM) (ErbB4) Avg EC50, huNRG1(S177-Q237)(1C11)::GG::huFcSEFL2 (Pb) (Fc fusion) SHLVKCGEKEKTFCVNGGECYMVERPSIPSRFLCKCPNEFTGDRCQKFFMASFYKAEELYQGGDKTHTCPPCPAPELLGGPSVFLFPPKPKDTLMISRTPEVTCVVVDVSHEDPEVKFNWYVDGVEVHNAKTKPCEEQYGSTYRCVSVLTVLHQDWLNGKEYKCKVSNKALPAPIEKTISKAKGQPREPQVYTLPPSREEMTKNQVSLTCLVKGFYPSDIAVEWESNGQPENNYKTTPPVLDSDGSFFLYSKLTVDKSRWQQGNVFSCSVMHEALHNHYTQKSLSLSPGK : 1.1
